Provide the reported Average % inhibition at 100 nM of each item.
targetSystem: 11β-HSD1 (Homo sapiens, UniProt P28845)
Sequence (P28845 whole entry): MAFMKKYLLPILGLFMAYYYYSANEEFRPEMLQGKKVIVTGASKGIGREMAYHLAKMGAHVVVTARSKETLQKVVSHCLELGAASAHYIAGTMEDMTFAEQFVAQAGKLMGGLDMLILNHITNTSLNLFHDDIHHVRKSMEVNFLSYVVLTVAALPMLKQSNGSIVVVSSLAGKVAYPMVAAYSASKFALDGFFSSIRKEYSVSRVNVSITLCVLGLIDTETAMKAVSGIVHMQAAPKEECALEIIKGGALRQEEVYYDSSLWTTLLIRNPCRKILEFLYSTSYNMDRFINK
conditionsUsed: Biological Test Example 1; 100 nM compound; 0.1 µM
One number for each entry, in %.

The examples below pair each entry with its known result.
| molecule | Average % inhibition at 100 nM [%] |
| --- | --- |
| C[C@@H](c1ccc(-c2ccc(F)cc2F)cc1)N1CC[C@](CC(O)CO)(c2ccc(F)cc2)OC1=O (single isomer, unassigned) [EXAMPLE 52 Isomer 2] | 90.8 |
| C=CCC1(c2ccc(F)cc2)CCN([C@@H](C)c2ccc(Cl)cc2)C(=O)O1 (single isomer, unassigned) [EXAMPLE 196 Isomer 2] | 98.9 |

For each of the molecules below, state Average % inhibition at 100 nM.
1. CC1CC(CCO)(c2ccc(F)cc2)OC(=O)N1[C@@H](C)c1ccc(Br)cc1 (single isomer, unassigned) [EXAMPLE 163 Isomer 3]
2. C[C@@H](C1CCCCC1)N1CC[C@](CC(O)CO)(c2ccc(F)cc2)OC1=O (single isomer, unassigned) [EXAMPLE 197 Isomer 2]

1: 11.3; 2: 82.1

Hi, could you look up Average % inhibition at 100 nM for each item in my list?
1. C[C@@H](c1ccc(-c2ccc(F)cc2F)cc1)N1CC[C@](CC(O)CNC(N)=O)(c2ccc(F)cc2)OC1=O (single isomer, unassigned) [EXAMPLE 276 Isomer 2]
2. C[C@@H](c1ccc(-c2ccc(F)cc2F)cc1)N1CC[C@](CC(O)CNC(N)=O)(c2ccc(F)cc2)OC1=O (single isomer, unassigned) [EXAMPLE 276 Isomer 1]
3. C[C@@H](c1ccc(-c2ccc(F)cc2F)cc1)N1CCC(CCO)(c2cccs2)OC1=O (single isomer, unassigned) [EXAMPLE 233 Isomer 1]
4. CC(C)(C)OC(=O)N1CCC(N2CCC(CCCO)(c3ccccc3)OC2=O)C1 (single isomer, unassigned) [EXAMPLE 208 Isomer 1]
5. COc1ccc([C@H](C)N2CCC(CCCO)(c3ccc(F)cc3)OC2=O)cc1 (single isomer, unassigned) [EXAMPLE 201 Isomer 2]
6. C=CCC1(c2ccc(F)cc2)CCN([C@@H](C)c2ccc(C)cc2)C(=O)O1 (single isomer, unassigned) [EXAMPLE 189 Isomer 2]
7. CC1CC(CCO)(c2ccc(F)cc2)OC(=O)N1[C@@H](C)c1ccc(Br)cc1 (single isomer, unassigned) [EXAMPLE 163 Isomer 2]
8. CC(C)C1(CC(O)CO)CCN([C@@H](C)c2ccc(-c3ccc(F)cc3F)cc2)C(=O)O1 (single isomer, unassigned) [EXAMPLE 223 Isomer 1]

1. 35.4
2. 83.1
3. 98.9
4. 76.6
5. 27.0
6. 90.1
7. 96.9
8. 94.2

# batch size: 3; output Average % inhibition at 100 nM per entry
1. C[C@@H](c1ccc(-c2ccc(F)cc2)cc1)N1CC[C@](CC(O)CN(C)S(C)(=O)=O)(c2ccc(F)cc2)OC1=O (single isomer, unassigned) [EXAMPLE 278 Isomer 2]
2. COc1ccc([C@H](C)N2CCC(CC(O)CO)(c3ccccc3)OC2=O)cc1 (single isomer, unassigned) [EXAMPLE 286 Isomer 3]
3. COc1ccc([C@H](C)N2CC[C@](CC(O)CO)(c3ccc(F)cc3)OC2=O)cc1 (single isomer, unassigned) [EXAMPLE 206 Isomer 2]

65.5
70.5
85.9

Dear colleague, could you please provide Average % inhibition at 100 nM for the molecules listed below?
1. C[C@@H](c1ccc(-c2ccc(F)cc2F)cc1)N1CC[C@](CC(O)CO)(c2ccccc2)OC1=O (single isomer, unassigned) [EXAMPLE 173 Isomer 2]
2. C[C@@H](c1ccc(-c2ccc(F)cc2)cc1)N1CC[C@](CC(O)CO)(c2ccccc2)OC1=O (single isomer, unassigned) [EXAMPLE 168 Isomer 2]
3. CC(O)C[C@]1(c2ccccc2)CCN([C@@H](C)c2ccc(-c3ccc(F)cc3)cc2)C(=O)O1 (single isomer, unassigned) [EXAMPLE 224 Isomer 2]

1: 94.5; 2: 95.6; 3: 95.6
